I'd be grateful if you could share measured MIC for these entries.
System: Aspergillus niger
Experiment: In vitro antifungal activity at a minimum inhibitory concentration (~100 ug/mL) against Aspergillus niger; Not affected
Format: functional
Conditions: Aspergillus niger; read-out: MIC

(Q) Name the recorded MIC for CO[C@@H]1C[C@H](C[C@@H](C)[C@@H]2CC(=O)[C@H](C)/C=C(\C)[C@@H](O)[C@@H](OC)C(=O)[C@H](C)C[C@H](C)/C=C/C=C/C=C(\C)[C@H](N(O)C(=O)OC(C)C)C[C@@H]3CC[C@@H](C)[C@@](O)(O3)C(=O)C(=O)N3CCCC[C@H]3C(=O)O2)CC[C@H]1O .
(A) ~100 µg/mL

(Q) Name the recorded MIC for CO[C@@H]1C[C@H](C[C@@H](C)[C@@H]2CC(=O)[C@H](C)/C=C(\C)[C@@H](O)[C@@H](OC)C(=O)[C@H](C)C[C@H](C)/C=C/C=C/C=C(\C)[C@H](N(O)C(N)=O)C[C@@H]3CC[C@@H](C)[C@@](O)(O3)C(=O)C(=O)N3CCCC[C@H]3C(=O)O2)CC[C@H]1O .
(A) ~100 µg/mL

(Q) Name the recorded MIC for COC(=O)N(O)[C@@H]1C[C@@H]2CC[C@@H](C)[C@@](O)(O2)C(=O)C(=O)N2CCCC[C@H]2C(=O)O[C@H]([C@H](C)C[C@@H]2CC[C@@H](O)[C@H](OC)C2)CC(=O)[C@H](C)/C=C(\C)[C@@H](O)[C@@H](OC)C(=O)[C@H](C)C[C@H](C)/C=C/C=C/C=C/1C .
(A) ~100 µg/mL

Sourced from ChEMBL document CHEMBL1133206
